Experiment: NCI Yeast Anticancer Drug Screen. Data for the mec2-1 strain (AID 157)
Conditions: S. cerevisiae mec2-1 strain, at 50.0 µM
Compounds without any hit were thinned out: in the full panel of roughly 79,000, 15% have a hit. Active and inactive are the calls of the source. Cut-off read from the data, not from the text of the source: active = growth inhibition above about 70%; inactive = the rest.
Outcome codes: active, inactive

molecule=N#C/C(=C/C=C/c1ccco1)C(N)=O assigned_label=inactive
molecule=COC(=O)CCN(CCC(=O)OC)C1CC1 assigned_label=inactive
molecule=CCn1c2ccccc2n2c(=O)c3c(c(C#N)c12)CCCC3 assigned_label=inactive
molecule=COc1c(C)c2nc3ccccc3[nH]c2c2c(=O)ccnc12 assigned_label=inactive
molecule=O=C1Nc2cc([N+](=O)[O-])c(Br)cc2C1=O assigned_label=inactive
molecule=Nc1ccc(C(=O)O)cc1Cl assigned_label=inactive
molecule=C1CC(CCN2CCOCC2)CCN1 assigned_label=inactive
molecule=CCN(c1ccc(Br)cc1)c1ccc(Br)cc1 assigned_label=inactive
molecule=COc1ccc(-c2cc(C)cc(O)c2)c(OC)c1OC assigned_label=inactive
molecule=Cc1cc(C)cc(NC(N)=S)c1 assigned_label=inactive
molecule="NC(=O)N/N=C(/c1nc2ccc([N+](=O)[O-])cc2[nH]c1=O)C(O)c1ccco1 (centres undefined)" assigned_label=inactive
molecule="CC(=O)OC1CCC2(C)C(CCC34OC23CCC2(C)C(C(C)CCCC(C)C)CCC24C)C1(C)C (centres undefined)" assigned_label=inactive
molecule="CCCCC(CC)CCC(O)CC(C)C (centres undefined)" assigned_label=inactive
molecule="O=C(O)C1C2CCC(O2)C1C(=O)Nc1cccc2cccnc12 (centres undefined)" assigned_label=inactive
molecule=Cc1ccc(C2=CSC3=NCCN23)cc1Cl assigned_label=inactive
molecule=CC[n+]1c(-c2ccccc2)c2cc(NCCCN)ccc2c2ccc(N)cc21 assigned_label=inactive
molecule=CC[CH2][Sn]([CH2]CC)([O]C(=O)c1cccnc1SC)[O][Sn]([CH2]CC)([CH2]CC)[O]C(=O)c1cccnc1SC assigned_label=active
molecule=CCOc1ccc(-n2c(C)c(COC(=O)NC)c(COC(=O)NC)c2C)cc1 assigned_label=inactive
molecule="CC1CCN(C(c2ccccc2)c2ccc3ccccc3c2O)CC1 (centres undefined)" assigned_label=inactive
molecule="CCC1=C(C(C)=O)[C@@H]2CCCCC(C(=O)OC)[C@@H]2C1=O (some centres undefined)" assigned_label=inactive
molecule="O=C(O)c1cccc(S(=O)(=O)NN2C(=O)CSC2c2ccccc2Cl)c1 (centres undefined)" assigned_label=inactive
molecule=C=C1CN(C(=O)NCCCl)C1 assigned_label=inactive
molecule=N#Cc1c(-c2ccco2)cc(-c2ccc(N)cc2)[nH]c1=O assigned_label=inactive
molecule="CCOC(=O)/C(=C(/N)C1OC(COC(c2ccccc2)(c2ccccc2)c2ccccc2)C2OC(C)(C)OC12)C1CC(=O)N(C)C1=O (centres undefined)" assigned_label=inactive

* * *

Test: NCI Yeast Anticancer Drug Screen. Data for the sgs1 mgt1 strain (AID 161);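 note: 0% = growth of cultures given vehicle only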
Settings: S. cerevisiae sgs1 mgt1 strain, at 50.0 µM, hits give high values
About 79,000 compounds went through this panel and 15% of them were active in at least one assay; those are over-represented in the sample as a whole.
We begin with a simple list: items and their reported growth inhibition.
readout.kind: growth inhibition (%)

molecule=COC1=CC(=O)C(C(C)=O)=C(C2(C)C(=O)CCCC2=O)C1=O result_unit=% reported_result=-0.6
molecule=[O-][N+](=Nc1ccc(Sc2ccccc2)cc1)c1ccc(Sc2ccccc2)cc1 result_unit=% reported_result=19
molecule=CN(C)N=Nc1ccc(Cl)cc1 result_unit=% reported_result=16.6
molecule="CCCCCCC(O)CCCCCCCCCCC(=O)OC (configuration not stated)" result_unit=% reported_result=20.6
molecule="NC(Cc1cccc([N+](=O)[O-])c1)C(=O)O (configuration not stated)" result_unit=% reported_result=-35.2
molecule=Cc1cc(=O)c(C#N)c(C)o1 result_unit=% reported_result=19.4
molecule=CCCCn1c(=S)sc2ccccc21 result_unit=% reported_result=20.8
